Test: Cytotoxicity against MDCK cells assessed as reduction in cell viability after 48 hrs by MTT assay
Type: cell-based, Canis lupus familiaris
Details: dog
Measurement kind: CC50 at 48 h

{"Molecule": "CC1(C)[C@@H]2CC[C@@]1(C)/C(=N/NC(=O)C(F)(F)F)C2", "Measurement kind": "CC50 at 48 h", "Observed result": "> 1080 µM"}
{"Molecule": "NC(=O)c1ncn([C@@H]2O[C@H](CO)[C@@H](O)[C@H]2O)n1", "Measurement kind": "CC50 at 48 h", "Observed result": "> 2130 µM"}

Input: # input molecule: CC12C=CC3(O1)C(C(=O)N1CCCOC13)C2C(=O)N/N=C1\C[C@H]2CC[C@]1(C)C2(C)C (mixture of isomers) ; wanted: its CC50 at 48 h
Output: > 721 µM
